Target: Inhibitor of nuclear factor kappa-B kinase subunit beta (Homo sapiens, UniProt O14920)
Sequence (O14920 whole entry): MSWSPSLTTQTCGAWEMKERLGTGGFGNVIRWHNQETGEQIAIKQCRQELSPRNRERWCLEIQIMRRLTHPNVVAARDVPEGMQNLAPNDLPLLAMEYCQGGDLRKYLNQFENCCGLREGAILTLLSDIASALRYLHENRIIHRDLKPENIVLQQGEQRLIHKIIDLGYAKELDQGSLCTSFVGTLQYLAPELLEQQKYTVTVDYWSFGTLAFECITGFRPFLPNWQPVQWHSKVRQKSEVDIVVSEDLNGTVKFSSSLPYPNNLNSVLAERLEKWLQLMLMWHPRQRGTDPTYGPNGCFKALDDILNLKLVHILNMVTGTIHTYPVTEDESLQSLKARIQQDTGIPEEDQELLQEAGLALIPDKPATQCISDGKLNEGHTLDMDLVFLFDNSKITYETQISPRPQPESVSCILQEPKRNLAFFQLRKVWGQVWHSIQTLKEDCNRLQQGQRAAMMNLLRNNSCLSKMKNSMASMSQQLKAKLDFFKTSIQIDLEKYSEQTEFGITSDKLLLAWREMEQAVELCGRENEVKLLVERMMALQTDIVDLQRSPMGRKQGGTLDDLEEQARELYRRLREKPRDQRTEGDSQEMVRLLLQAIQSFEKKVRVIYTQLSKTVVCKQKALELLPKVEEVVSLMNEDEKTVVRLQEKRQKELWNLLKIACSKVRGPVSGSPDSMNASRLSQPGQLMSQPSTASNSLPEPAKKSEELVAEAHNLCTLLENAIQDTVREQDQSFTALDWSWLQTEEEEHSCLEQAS
Experiment: Inhibition of purified recombinant histidine-HA-tagged IKK-beta expressed in SF9 cells
metric: IC50 (µM)
Unit µM implied. Number only.

So what does the record say about IC50 for COCCOCOc1ccc(C(=O)/C=C/c2ccc(C(=O)O)cc2)cc1C12CC3CC(CC(C3)C1)C2 ? 7
